Target: UniProtKB P33261
Sequence (P33261 whole entry): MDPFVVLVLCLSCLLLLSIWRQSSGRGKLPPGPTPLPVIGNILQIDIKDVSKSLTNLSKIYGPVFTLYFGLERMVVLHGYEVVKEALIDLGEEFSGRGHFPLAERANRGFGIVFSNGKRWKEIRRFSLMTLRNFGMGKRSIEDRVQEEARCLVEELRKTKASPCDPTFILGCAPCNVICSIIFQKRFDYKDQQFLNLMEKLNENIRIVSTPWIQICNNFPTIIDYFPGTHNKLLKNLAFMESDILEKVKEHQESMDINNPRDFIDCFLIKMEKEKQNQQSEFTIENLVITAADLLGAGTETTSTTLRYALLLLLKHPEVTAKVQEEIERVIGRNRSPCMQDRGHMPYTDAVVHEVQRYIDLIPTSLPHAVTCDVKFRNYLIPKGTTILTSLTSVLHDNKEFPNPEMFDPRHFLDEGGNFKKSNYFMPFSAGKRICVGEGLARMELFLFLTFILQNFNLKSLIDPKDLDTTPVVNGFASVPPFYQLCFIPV
Readout type: IC50

> print(dat)
                                   molecule  readout.type  endpoint.value
1  C[C@@H](O[C@H]1CC[C@@H]2CN(C3=CC(=O)CC3)C[C@H]2[C@@H]1c1ccc(F)cc1)c1cc(C(F)(F)F)cc(C(F)(F)F)c1 [SERLOPITANT]          IC50           29 µM

---

Test: Bioavailability in monkey at 0.5 mg/kg, iv and 1 mg/kg, po
Type: ADME, organism-based, Macaca mulatta
Details: rhesus monkey, in vivo
Readout type: bioavailability (%)

> print(dat)
                           molecular.string     readout.type  result.units  endpoint.value
1  C[C@@H](O[C@H]1CC[C@@H]2CN(C3=CC(=O)CC3)C[C@H]2[C@@H]1c1ccc(F)cc1)c1cc(C(F)(F)F)cc(C(F)(F)F)c1  bioavailability             %              69
